Source listed as patent US9834514B2.

# System: MRSA isolates (S. aureus ATCC 33591, BAA-44, BAA-1707, BAA-1717, BAA-1720, BAA-1747, BAA-1754, BAA-1761, BAA-1763, BAA-1764, BAA-1766)
# test: Combination effects of compounds 7-11 and antibiotics on MRSA isolates (turbidity)
# Format: cell-based
# experimental-parameters: MRSA ATCC BAA-1763
endpoint-label: combination effect with Gentamycin

cpd-smiles	result
Clc1ccc(Oc2c(-c3ccc(Cl)cc3)[nH]c3ccccc23)cc1	Susceptible
Clc1ccc(Oc2c(-c3ccc(Cl)cc3)[nH]c3ccc(Cl)cc23)cc1	Susceptible
Clc1ccc(/N=N/c2c[nH]c3ccccc23)cc1	Susceptible
Brc1ccc(/N=N/c2c[nH]c3ccccc23)cc1	Susceptible
